Attribute: Level of hair growth (unaided visual inspection)
Test system: C3H strain mice
Experiment: Hair growth on clipped back skin, repeat with minoxidil control, Example 5
Format: in vivo
Conditions: 0.1%; Week 4
Parameter: Level of hair growth (unaided visual inspection)

- Molecule: "CC1(C)[C@H](C(=O)O[C@H](C#N)c2cccc(Oc3ccccc3)c2)[C@@H]1C=C(Br)Br [Deltamethrin, deltamethrin]"
  Value: 5
- Molecule: "CC1(C)C(C=C(Cl)Cl)C1C(=O)OC(C#N)c1cccc(Oc2ccccc2)c1 (stereo not shown) [Cypermethrin, cypermethrin]"
  Value: 5
- Molecule: "CC(C)C(C(=O)OC(C#N)c1cccc(Oc2ccccc2)c1)c1ccc(Cl)cc1 (stereo not shown) [Fenvalerate, fenvalerate]"
  Value: 5
- Molecule: "CC1(C)C(C=C(Cl)Cl)C1C(=O)OCc1cccc(Oc2ccccc2)c1 (stereo not shown) [Permethrin, permethrin]"
  Value: 0

###

System: C3H strain mice
Experiment: Hair growth on clipped back skin, repeat with minoxidil control, Example 5
Assay type: in vivo
Set-up: scale not given here
Settings: 0.01%; Week 3
Attribute: Level of hair growth (unaided visual inspection)
Parameter: Level of hair growth (unaided visual inspection)

- Compound: "CC(C)C(C(=O)OC(C#N)c1cccc(Oc2ccccc2)c1)c1ccc(Cl)cc1 (stereo not shown) [Fenvalerate, fenvalerate]"
  Study Target: "C3H strain mice"
  Value: 0
- Compound: "CC1(C)C(C=C(Cl)Cl)C1C(=O)OCc1cccc(Oc2ccccc2)c1 (stereo not shown)"
  Study Target: "C3H strain mice"
  Value: 0
- Compound: "CC1(C)[C@H](C(=O)O[C@H](C#N)c2cccc(Oc3ccccc3)c2)[C@@H]1C=C(Br)Br"
  Study Target: "C3H strain mice"
  Value: 1
- Compound: "CC1(C)C(C=C(Cl)Cl)C1C(=O)OC(C#N)c1cccc(Oc2ccccc2)c1 (stereo not shown)"
  Study Target: "C3H strain mice"
  Value: 0

###

Attribute: Level of hair growth (unaided visual inspection)
Tested on: C3H strain mice
Test: Hair growth on clipped back skin, repeat with minoxidil control, Example 5
Format: in vivo
Parameters: scale not given here
Details: 1%; Week 3
Parameter: Level of hair growth (unaided visual inspection)

- Compound: "CC1(C)C(C=C(Cl)Cl)C1C(=O)OCc1cccc(Oc2ccccc2)c1 (stereo not shown)"
  Value: 0
- Compound: "CC1(C)C(C=C(Cl)Cl)C1C(=O)OC(C#N)c1cccc(Oc2ccccc2)c1 (stereo not shown)"
  Value: 5
- Compound: "CC1(C)[C@H](C(=O)O[C@H](C#N)c2cccc(Oc3ccccc3)c2)[C@@H]1C=C(Br)Br"
  Value: 5

###

System: mice (Sencar strain)
Test: Ear thickness after TPA plus pyrethroid application, Example 2
Assay type: in vivo
Conditions: day 2; 20 μL TPA 10^−4 M in acetone then 10 μL of 1% in ethanol; Sencar mice
Attribute: Right ear thickness

- Compound: "CC1(C)[C@H](C(=O)O[C@H](C#N)c2cccc(Oc3ccccc3)c2)[C@@H]1C=C(Br)Br"
  Right ear thickness / ×0.01 mm: 29.0
- Compound: "CC(C)C(C(=O)OC(C#N)c1cccc(Oc2ccccc2)c1)c1ccc(Cl)cc1 (stereo not shown) [Fenvalerate, fenvalerate]"
  Right ear thickness / ×0.01 mm: 26.7
- Compound: "CC1(C)C(C=C(Cl)Cl)C1C(=O)OCc1cccc(Oc2ccccc2)c1 (stereo not shown)"
  Right ear thickness / ×0.01 mm: 27.0
- Compound: "CC1(C)C(C=C(Cl)Cl)C1C(=O)OC(C#N)c1cccc(Oc2ccccc2)c1 (stereo not shown)"
  Right ear thickness / ×0.01 mm: 28.3
